These data points were gathered from patent US20230117470A1.

Measured IC50, listed per entry.
- target-entity: human TLR8 (Homo sapiens)
- Sequence (Q9NR97 27-1041): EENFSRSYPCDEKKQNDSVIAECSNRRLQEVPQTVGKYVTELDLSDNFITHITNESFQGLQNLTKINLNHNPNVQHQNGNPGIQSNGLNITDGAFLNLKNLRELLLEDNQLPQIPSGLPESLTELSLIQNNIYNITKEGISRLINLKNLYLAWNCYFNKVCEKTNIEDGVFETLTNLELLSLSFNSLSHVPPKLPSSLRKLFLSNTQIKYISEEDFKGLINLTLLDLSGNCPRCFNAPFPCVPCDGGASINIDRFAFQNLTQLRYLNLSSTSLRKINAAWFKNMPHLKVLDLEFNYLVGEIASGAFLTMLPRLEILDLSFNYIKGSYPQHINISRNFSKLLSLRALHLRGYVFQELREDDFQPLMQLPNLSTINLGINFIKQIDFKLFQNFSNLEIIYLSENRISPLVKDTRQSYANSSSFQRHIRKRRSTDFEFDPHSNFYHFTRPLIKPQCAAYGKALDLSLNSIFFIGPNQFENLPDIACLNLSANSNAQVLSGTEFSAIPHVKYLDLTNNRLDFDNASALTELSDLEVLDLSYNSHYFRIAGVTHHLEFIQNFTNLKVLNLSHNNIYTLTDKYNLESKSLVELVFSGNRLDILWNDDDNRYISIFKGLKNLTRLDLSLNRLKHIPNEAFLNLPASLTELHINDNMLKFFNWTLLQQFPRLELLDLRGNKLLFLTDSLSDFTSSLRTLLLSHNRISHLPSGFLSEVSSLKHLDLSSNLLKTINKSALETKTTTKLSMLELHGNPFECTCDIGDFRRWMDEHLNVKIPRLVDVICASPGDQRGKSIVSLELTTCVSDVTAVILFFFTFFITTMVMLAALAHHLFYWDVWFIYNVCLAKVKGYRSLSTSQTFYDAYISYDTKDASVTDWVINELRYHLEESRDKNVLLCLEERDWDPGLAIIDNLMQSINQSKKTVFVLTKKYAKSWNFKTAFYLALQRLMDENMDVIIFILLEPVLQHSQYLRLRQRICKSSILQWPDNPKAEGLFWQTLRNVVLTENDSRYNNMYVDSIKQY
- assay-method-text: TLR8 inhibition reporter assay (HEK-Blue cells, SEAP reporter, R848 stimulation)
- condition-description: HEK-Blue cells overexpressing human TLR8, SEAP reporter, R848 15.9 μM

[
  {
    "item-smiles": "Cc1cc(-c2[nH]nc(C(=O)NC3CCN(CCC(C)C)CC3)c2C(C)C)cn2ncnc12",
    "target-entity": "human TLR8 (Homo sapiens)",
    "IC50, nM": 2.62
  },
  {
    "item-smiles": "COc1cc(-c2[nH]nc(-c3cnc(C4CCNCC4)cn3)c2C(C)C)cn2ncnc12",
    "target-entity": "human TLR8 (Homo sapiens)",
    "IC50, nM": 3.12
  },
  {
    "item-smiles": "COc1cc(-c2[nH]nc(-c3ccc(C4CCNCC4)cc3)c2C(C)C)cn2ncnc12",
    "target-entity": "human TLR8 (Homo sapiens)",
    "IC50, nM": 0.09
  },
  {
    "item-smiles": "Cc1cc(-c2[nH]nc(C(=O)NCCN3CCOCC3)c2C(C)C)cn2ncnc12",
    "target-entity": "human TLR8 (Homo sapiens)",
    "IC50, nM": 3.05
  }
]
